# test-system: T1, PSMA Fab (biotinylated (site not stated))
# T1 construct: Biotinylated PSMA Fab captured on neutravidin coated plates in the phage ELISA; also called Anti-PSMA Fab; 006 PSMA Fab
# run-description: clonal phage ELISA on biotinylated PSMA Fab captured on neutravidin plates, blocking buffer alone; anti-M13 HRP detection
Measured phage binding ELISA signal, listed per entry for reference.
Please reply with the number alone, leaving off any unit.

// solved cases for phage binding ELISA signal follow
[[record]]
binder = "VAPICRPSWMCEWL [Phage-3328]"
measured = 1.84

[[record]]
binder = "EGRYCVPEWMCQGF [Phage-3335]"
measured = 1.84

[[record]]
binder = "IGVVCKPLWMCHGF [Phage-3327]"
measured = 1.85

[[record]]
binder = "VDRLCSPAWMCLGF [Phage-3329]"
measured = 1.84

[[record]]
binder = "VGPRCVPEWMCIGL [Phage-3324]"
measured = 1.85

[[record]]
binder = "QVVMCTPEWMCSGF [Phage-3326]"
measured = 1.85


API: the following record is the query input.
Qu. Entry IEFLCKPMWMCNGF [Phage-3333] has what phage binding ELISA signal?
Ans. 1.84
